target: D(1A) dopamine receptor (Homo sapiens) (UniProt P21728); experiment: Antagonist of Human D 1 Dopamine Receptor: qHTS; details: HEK293 TREx D1 cells, calcium flux, dopamine EC80; at 10 µM; stronger effect = lower value; also: % is scaled to controls: 0 for no effect and ±100 for the full control effect
Sequence (P21728 whole entry, looked up): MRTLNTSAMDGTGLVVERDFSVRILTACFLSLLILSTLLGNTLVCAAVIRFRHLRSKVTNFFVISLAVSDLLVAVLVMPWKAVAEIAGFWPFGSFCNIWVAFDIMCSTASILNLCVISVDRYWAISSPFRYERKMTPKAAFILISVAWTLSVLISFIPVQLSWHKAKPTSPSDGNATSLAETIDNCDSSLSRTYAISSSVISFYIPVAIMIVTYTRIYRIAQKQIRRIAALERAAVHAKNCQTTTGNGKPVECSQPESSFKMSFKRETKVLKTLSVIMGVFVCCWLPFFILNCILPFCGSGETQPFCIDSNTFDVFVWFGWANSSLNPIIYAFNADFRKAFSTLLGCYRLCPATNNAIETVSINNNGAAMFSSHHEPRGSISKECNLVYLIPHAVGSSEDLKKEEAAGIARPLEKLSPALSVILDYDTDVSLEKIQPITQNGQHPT
Out of some 360,000 compounds screened, about 11,000 (3.1%) were called active. The entries come from a sample that favours actives as a whole.
Please assign false (0) whenever activity change, negative = inhibition is at or above -10%, and true (1) whenever it is below.

# COMPOUND, CLASS
rows = [
    ("CCn1cc(C(=O)N2CCN(c3cc(Cl)ccc3C)CC2)c(=O)c2cc(S(=O)(=O)N3CCCC3)ccc21", "false (0)"),
    ("CCc1cc2c(-c3ccccc3)cc(=O)oc2c2c1OCN(Cc1ccc(C)cc1)C2", "false (0)"),
    ("Cc1ccc(Cl)cc1NC(=O)CSc1nccn1C", "true (1)"),
    ("Cc1ccc(CCNC(=O)c2ccc3c(c2)nc2n3CCC(C)C2)cc1 (configuration not stated)", "true (1)"),
    ("CCCN(C(=O)Cn1ncc2c([nH]c3ccc(C)cc32)c1=O)c1ccccc1C", "false (0)"),
]

# input API: query returns whether the compound falls strictly under -10% in activity change, negative = inhibition. Query: CCOc1ccc(NC(=O)CCC(=O)N2CC(C)Oc3ccc(C)cc32)cc1 (configuration not stated)
# output false (0)

# input Does this compound meet the criterion activity change, negative = inhibition < -10%? COc1cccc(NC(=S)N(CCc2c(C)[nH]c3ccccc23)Cc2ccco2)c1
# output true (1)
